Test: EWS/Fli-driven NR0B1 reporter inhibitors, primary screen, A673 cells, NR0B1 luciferase, luminescence, MLPCN library (AID 651661);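 also: firefly luciferase signal divided by Alamar Blue viability fluorescence both relative to DMSO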
Conditions: viability-normalised, at 12.6 µM, active compounds read high
About 2,300 (0.66%) of roughly 350,000 compounds were called active. The sample as a whole holds a higher share of actives than the screen did.
Entries and their inhibition values follow.
Kindly answer with a numeric value in %, unit omitted.

In the examples that follow, each entry is paired with its recorded inhibition.
>>> df
                        structure_as_smiles  result_type  data_value
0  CCCN1C[C@@H](C)[C@@H](OC)CN(C)C(=O)c2ccc(NC(=O)c3ccc(F)cc3)cc2OC[C@@H]1C   inhibition       -2.15
1  COc1ccc(-c2csc3ncnc(N4CCN(S(=O)(=O)c5ccccc5C#N)CC4)c23)cc1   inhibition        22.1
2  CCS(=O)(=O)N1[C@H](CO)[C@@H](c2ccccc2)C12CN(C(=O)c1ccccc1F)C2   inhibition        8.71

Quick one: inhibition for Cc1ccc(C)c(S(=O)(=O)N2CCN(c3ncnc4sccc34)CC2)c1 ? 51.5

For the molecule CC(C)OC(=O)c1ccc(NCc2cc(O)ccc2O)cc1Cl , what inhibition is on record? 59.4

For the molecule shown here, CN1c2ccc(-c3cccc(F)c3)cc2[C@H]2[C@H](CCN2C(=O)c2cccc(F)c2)[C@H]1CO , give the reported inhibition. -3.71

For the molecule COCC#Cc1ccc(CC[C@H]2O[C@H]3CC[C@@H](CO)O[C@H]3C[C@H]2NC(=O)Nc2c(C)noc2C)cc1 , what inhibition is on record? -3.3

inhibition for Cc1ccc(C)c(S(=O)(=O)N2CCN(C(=O)Nc3ccccc3)CC2)c1 ? 1.58

# lookup: inhibition of CC[n+]1cc(C)ccc1/C=C/c1ccc(N(C)C)cc1 57.5
